- Assay text: total protein half-life in vivo (active degradation + dilution); higher = more stable protein
- Condition info: E. coli NCM3722 delta-lon; growth: N-lim chemostat; doubling time 6 h
Binary call on total protein half-life in vivo: class 1 from 6 h upward, class 0 beneath that.

>>> category("MRTLQGWLLPVFMLPMAVYAQEATVKEVHDAPAVRGSIIANMLQEHDNPFTLYPYDTNYLIYTQTSDLNKEAIASYDWAENARKDEVKFQLSLAFPLWRGILGPNSVLGASYTQKSWWQLSNSEESSPFRETNYEPQLFLGFATDYRFAGWTLRDVEMGYNHDSNGRSDPTSRSWNRLYTRLMAENGNWLVEVKPWYVVGNTDDNPDITKYMGYYQLKIGYHLGDAVLSAKGQYNWNTGYGGAELGLSYPITKHVRLYTQVYSGYGESLIDYNFNQTRVGVGVMLNDLF [P0A921]")
"class 1"
>>> category("MTVKQTVEITNKLGMHARPAMKLFELMQGFDAEVLLRNDEGTEAEANSVIALLMLDSAKGRQIEVEATGPQEEEALAAVIALFNSGFDED [P0A9N0]")
"class 0"
>>> category("MTMTRLKISKTLLAVMLTSAVATGSAYAENNAQTTNESAGQKVDSSMNKVGNFMDDSAITAKVKAALVDHDNIKSTDISVKTDQKVVTLSGFVESQAQAEEAVKVAKGVEGVTSVSDKLHVRDAKEGSVKGYAGDTATTSEIKAKLLADDIVPSRHVKVETTDGVVQLSGTVDSQAQSDRAESIAKAVDGVKSVKNDLKTK [P0AFH8]")
"class 0"
>>> category("MSAGSPKFTVRRIAALSLVSLWLAGCSDTSNPPAPVSSVNGNAPANTNSGMLITPPPKMGTTSTAQQPQIQPVQQPQIQATQQPQIQPVQPVAQQPVQMENGRIVYNRQYGNIPKGSYSGSTYTVKKGDTLFYIAWITGNDFRDLAQRNNIQAPYALNVGQTLQVGNASGTPITGGNAITQADAAEQGVVIKPAQNSTVAVASQPTITYSESSGEQSANKMLPNNKPTATTVTAPVTVPTASTTEPTVSSTSTSTPISTWRWPTEGKVIETFGASEGGNKGIDIAGSKGQAIIATADGRVVYAGNALRGYGNLIIIKHNDDYLSAYAHNDTMLVREQQEVKAGQKIATMGSTGTSSTRLHFEIRYKGKSVNPLRYLPQR [P0ADA3]")
"class 1"

Read the next record carefully.
Determine whether this sequence has total protein half-life in vivo no lower than 6 h: "MVTINNARKILQRVDTLPLYLHAYAFHLNMRLERVLPADLLDIASENNLRGVKIHVLDGERFSLGNMDDKELSAFGDKARRLNLDIHIETSASDKASIDEAVAIALKTGASSVRFYPRYEGNLRDVLSIIANDIAYVRETYQDSGLTFTIEQHEDLKSHELVSLVKESEMESLSLLFDFANMINANEHPIDALKTMAPHITQVHIKDALIVKEPGGLGHKACISGQGDMPFKALLTHLICLGDDEPQVTAYGLEEEVDYYAPAFRFEDEDDNPWIPYRQMSETPLPENHLLDARLRKEKEDAINQINHVRNVLQQIKQEANHLLNH"
class 0

----------
- Assay text: total protein half-life in vivo (active degradation + dilution); higher = more stable protein
- Condition info: E. coli NCM3722 delta-clpP; growth: N-lim chemostat; doubling time 6 h
Value kind: total protein half-life in vivo
I'd appreciate it if you wrote the number followed by its unit.

Any idea what total protein half-life in vivo was measured for MAKHLFTSESVSEGHPDKIADQISDAVLDAILEQDPKARVACETYVKTGMVLVGGEITTSAWVDIEEITRNTVREIGYVHSDMGFDANSCAVLSAIGKQSPDINQGVDRADPLEQGAGDQGLMFGYATNETDVLMPAPITYAHRLVQRQAEVRKNGTLPWLRPDAKSQVTFQYDDGKIVGIDAVVLSTQHSEEIDQKSLQEAVMEEIIKPILPAEWLTSATKFFINPTGRFVIGGPMGDCGLTGRKIIVDTYGGMARHGGGAFSGKDPSKVDRSAAYAARYVAKNIVAAGLADRCEIQVSYAIGVAEPTSIMVETFGTEKVPSEQLTLLVREFFDLRPYGLIQMLDLLHPIYKETAAYGHFGREHFPWEKTDKAQLLRDAAGLK [P0A817] ?
2.16 h

----------
- Assay text: total protein half-life in vivo (active degradation + dilution); higher = more stable protein
- Condition info: wild type E. coli NCM3722; growth: C-lim chemostat; doubling time 6 h
Value kind: total protein half-life in vivo (h)
Numbers only, in h.

>>> observed("MTQFNPVDHPHRRYNPLTGQWILVSPHRAKRPWQGAQETPAKQVLPAHDPDCFLCAGNVRVTGDKNPDYTGTYVFTNDFAALMSDTPDAPESHDPLMRCQSARGTSRVICFSPDHSKTLPELSVAALTEIVKTWQEQTAELGKTYPWVQVFENKGAAMGCSNPHPHGQIWANSFLPNEAEREDRLQKEYFAEQKSPMLVDYVQRELADGSRTVVETEHWLAVVPYWAAWPFETLLLPKAHVLRITDLTDAQRSDLALALKKLTSRYDNLFQCSFPYSMGWHGAPFNGEENQHWQLHAHFYPPLLRSATVRKFMVGYEMLAETQRDLTAEQAAERLRAVSDIHFRESGV")
5.51

Then there is this sequence:
Any idea what total protein half-life in vivo was measured for "MMKTVKHLLCCAIAASALISTGVHAASWKDALSSAASELGNQNSTTQEGGWSLASLTNLLSSGNQALSADNMNNAAGILQYCAKQKLASVTDAENIKNQVLEKLGLNSEEQKEDTNYLDGIQGLLKTKDGQQLNLDNIGTTPLAEKVKTKACDLVLKQGLNFIS" ?
3.87

----------
- Assay text: total protein half-life in vivo (active degradation + dilution); higher = more stable protein
- Condition info: wild type E. coli NCM3722; growth: N-lim chemostat; doubling time 6 h
Field: total protein half-life in vivo. Provide a value for each of the sequences that follow.
I'd appreciate it if you wrote the number followed by its unit.

Reference set (3 entries):
>>> observed("MLAFCRSSLKSKKYIIILLALAAIAGLGTHAAWSSNGLPRIDNKTLARLAQQHPVVVLFRHAERCDRSTNQCLSDKTGITVKGTQDARELGNAFSADIPDFDLYSSNTVRTIQSATWFSAGKKLTVDKRLLQCGNEIYSAIKDLQSKAPDKNIVIFTHNHCLTYIAKDKRDATFKPDYLDGLVMHVEKGKVYLDGEFVNH")
"4.21 h"
>>> observed("MTETIKVSESLELHAVAENHVKPLYQLICKNKTWLQQSLNWPQFVQSEEDTRKTVQGNVMLHQRGYAKMFMIFKEDELIGVISFNRIEPLNKTAEIGYWLDESHQGQGIISQALQALIHHYAQSGELRRFVIKCRVDNPQSNQVALRNGFILEGCLKQAEFLNDAYDDVNLYARIIDSQ")
"4.47 h"
>>> observed("MSQPLNADQELVSDVVACQLVIKQILDVLDVIAPVEVREKMSSQLKNIDFTNHPAAADPVTMRAIQKAIALIELKFTPQGESH [P0AD10]")
"3.32 h"

Then there is this sequence:
Any idea what total protein half-life in vivo was measured for MTSLVSLENVSVSFGQRRVLSDVSLELKPGKILTLLGPNGAGKSTLVRVVLGLVTPDEGVIKRNGKLRIGYVPQKLYLDTTLPLTVNRFLRLRPGTHKEDILPALKRVQAGHLINAPMQKLSGGETQRVLLARALLNRPQLLVLDEPTQGVDVNGQVALYDLIDQLRRELDCGVLMVSHDLHLVMAKTDEVLCLNHHICCSGTPEVVSLHPEFISMFGPRGAEQLGIYRHHHNHRHDLQGRIVLRRGNDRS [P0A9X1] ?
2.6 h

----------
Field: total protein half-life in vivo. Provide a value for each of the sequences that follow.
- Assay text: total protein half-life in vivo (active degradation + dilution); higher = more stable protein
- Condition info: wild type E. coli NCM3722; growth: P-lim chemostat; doubling time 12 h
I'd appreciate it if you wrote the number followed by its unit.

>>> observed("MDLRDLKTFLHLAESRHFGRSARAMHVSPSTLSRQIQRLEEDLGQPLFVRDNRTVTLTEAGEELRVFAQQTLLQYQQLRHTIDQQGPSLSGELHIFCSVTAAYSHLPPILDRFRAEHPSVEIKLTTGDAADAMEKVVTGEADLAIAGKPETLPGAVAFSMLENLAVVLIAPALPCPVRNQVSVEKPDWSTVPFIMADQGPVRRRIELWFRRNKISNPMIYATVGGHEAMVSMVALGCGVALLPEVVLENSPEPVRNRVMILERSDEKTPFELGVCAQKKRLHEPLIEAFWKILPNHK")
"11 h"

Then there is this sequence:
Any idea what total protein half-life in vivo was measured for "MDKSKRHLAWWVVGLLAVAAIVAWWLLRPAGVPEGFAVSNGRIEATEVDIASKIAGRIDTILVKEGKFVREGEVLAKMDTRVLQEQRLEAIAQIKEAQSAVAAAQALLEQRQSETRAAQSLVNQRQAELDSVAKRHTRSRSLAQRGAISAQQLDDDRAAAESARAALESAKAQVSASKAAIEAARTNIIQAQTRVEAAQATERRIAADIDDSELKAPRDGRVQYRVAEPGEVLAAGGRVLNMVDLSDVYMTFFLPTEQAGTLKLGGEARLILDAAPDLRIPATISFVASVAQFTPKTVETSDERLKLMFRVKARIPPELLQQHLEYVKTGLPGVAWVRVNEELPWPDDLVVRLPQ" ?
12.9 h
